system: A. fumigatus MMX 5280 ATCC MYA-3626; assay: MIC/MEC assay (CLSI microdilution); type: cell-based, Aspergillus fumigatus; settings: Aspergillus fumigatus, 48 h, Without Tween-80, read-out: MEC
Numbered stars: 1 amine (or outer) side, 2 acyl side, 3 side chain; on linkers, the order of the positions; unused ones are H or OH. Square brackets hold non-standard residues; d marks the D form. Peptide text beside a SMILES is read from it. X26 = CC1CCN(c2cnc(-c3cccc(C[C@@H](C(=O)[*:2])N(C)[*:1])c3)cn2)CC1; X2 = CN1CCN(c2ccc(-c3cccc(C[C@@H](C(=O)[*:2])N(C)[*:1])c3)cc2)CC1; Hmp(2R,3S) = CC[C@H](C)[C@@H](O)C(=O)O; NMeVal(β-OH) = CN[C@H](C(=O)O)C(C)(C)O; NMeV = CN[C@H](C(=O)O)C(C)C
# minimal effective concentration listing for each entry below
Entry rule: numbers only, all in µg/mL.

>>> recordednumber("CC[C@H](C)[C@@H]1NC(=O)[C@@H]2CCCN2C(=O)[C@H](Cc2cccc(-c3cnc(N4CCC(C)CC4)cn3)c2)N(C)C(=O)[C@H](Cc2ccccc2)NC(=O)[C@H](C(C)C)N(C)C(=O)[C@@H]([C@@H](C)CC)OC(=O)[C@H](C(C)(C)O)N(C)C(=O)[C@H](CC(C)C)NC(=O)[C@H](C(C)C)N(C)C1=O [Compound 11] (cyclo(F[X26]PI[NMeV]L[NMeVal(β-OH)][Hmp(2R,3S)][NMeV]))")
4

Next:
Task: Can you share its minimal effective concentration? I mean this molecule: CC[C@H](C)[C@@H]1NC(=O)[C@@H]2CCCN2C(=O)[C@H](Cc2cccc(-c3ccc(N4CCN(C)CC4)cc3)c2)N(C)C(=O)[C@H](Cc2ccccc2)NC(=O)[C@H](C(C)C)N(C)C(=O)[C@@H]([C@@H](C)CC)OC(=O)[C@H](C(C)(C)O)N(C)C(=O)[C@H](CC(C)C)NC(=O)[C@H](C(C)C)N(C)C1=O [Compound 19] (cyclo(F[X2]PI[NMeV]L[NMeVal(β-OH)][Hmp(2R,3S)][NMeV]))
Output: 0.5
